Molecular target: human SGLT2 (Homo sapiens, UniProt P31639)
Sequence (P31639 whole entry): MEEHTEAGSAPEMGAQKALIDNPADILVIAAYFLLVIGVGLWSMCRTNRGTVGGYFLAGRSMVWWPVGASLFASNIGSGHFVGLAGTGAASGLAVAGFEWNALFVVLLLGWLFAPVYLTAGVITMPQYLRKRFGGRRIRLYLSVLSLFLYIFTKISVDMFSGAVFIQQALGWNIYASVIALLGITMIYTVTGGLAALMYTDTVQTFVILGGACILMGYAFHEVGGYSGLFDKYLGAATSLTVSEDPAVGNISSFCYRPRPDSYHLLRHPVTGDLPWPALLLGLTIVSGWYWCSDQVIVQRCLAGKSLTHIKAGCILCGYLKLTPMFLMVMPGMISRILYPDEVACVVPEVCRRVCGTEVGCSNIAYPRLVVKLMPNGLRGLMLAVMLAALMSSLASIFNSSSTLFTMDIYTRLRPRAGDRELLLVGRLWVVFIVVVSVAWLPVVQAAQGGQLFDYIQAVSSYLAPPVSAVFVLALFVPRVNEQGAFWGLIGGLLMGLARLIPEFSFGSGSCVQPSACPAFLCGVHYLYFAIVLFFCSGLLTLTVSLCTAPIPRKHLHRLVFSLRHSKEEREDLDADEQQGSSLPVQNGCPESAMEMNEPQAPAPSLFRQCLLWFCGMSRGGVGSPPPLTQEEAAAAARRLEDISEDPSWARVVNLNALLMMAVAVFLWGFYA
Test: SGLT2 assay: Na-dependent 14C-AMG uptake in CHO-K1 cells stably expressing human SGLT2
Settings: average if tested more than once
PROPERTY NAME: IC50 (nM)

Use these answered entries as a reference point.
[2H]C1([2H])Oc2ccc(Cc3cc([C@@H]4O[C@H](CO)[C@@H](F)[C@H](O)[C@H]4O)ccc3CC)cc2OC1([2H])[2H]; 12
COc1c([C@@H]2O[C@H](CO)[C@@H](F)[C@H](O)[C@H]2O)cc(Cc2ccc3c(c2)OCCO3)c2c1CCO2; 9
COc1cc(OC)c([C@@H]2O[C@H](CO)[C@@H](F)[C@H](O)[C@H]2O)cc1Cc1cc2ccccc2s1; 24

I = COc1cc(OC)c(C2OC(C(C)O)C(F)C(O)C2O)cc1Cc1cc2ccccc2s1 (single isomer, unassigned)
II = CCc1ccc(Cc2cc([C@@H]3O[C@H](CO)[C@@H](F)[C@H](O)[C@H]3O)cc3c2OCC3)cc1
III = CCOc1ccc(Cc2cc([C@@H]3O[C@H](CO)[C@@H](F)[C@H](O)[C@H]3O)c(O)c3c2OCC3)cc1
IV = OC[C@H]1O[C@@H](c2cc3c(c(Cc4ccc5c(c4)SCCO5)c2)OCC3)[C@H](O)[C@@H](O)[C@@H]1F
# input Hey, can you sort those compounds up there by IC50, smallest first? Submit the labels in the order that the ranking request calls for.
# output III, II, I, IV
(III: 4 nM, II: 12 nM, I: 24 nM, IV: 147 nM)

----------
Target: human SGLT1 (Homo sapiens)
Sequence (P13866 1-664): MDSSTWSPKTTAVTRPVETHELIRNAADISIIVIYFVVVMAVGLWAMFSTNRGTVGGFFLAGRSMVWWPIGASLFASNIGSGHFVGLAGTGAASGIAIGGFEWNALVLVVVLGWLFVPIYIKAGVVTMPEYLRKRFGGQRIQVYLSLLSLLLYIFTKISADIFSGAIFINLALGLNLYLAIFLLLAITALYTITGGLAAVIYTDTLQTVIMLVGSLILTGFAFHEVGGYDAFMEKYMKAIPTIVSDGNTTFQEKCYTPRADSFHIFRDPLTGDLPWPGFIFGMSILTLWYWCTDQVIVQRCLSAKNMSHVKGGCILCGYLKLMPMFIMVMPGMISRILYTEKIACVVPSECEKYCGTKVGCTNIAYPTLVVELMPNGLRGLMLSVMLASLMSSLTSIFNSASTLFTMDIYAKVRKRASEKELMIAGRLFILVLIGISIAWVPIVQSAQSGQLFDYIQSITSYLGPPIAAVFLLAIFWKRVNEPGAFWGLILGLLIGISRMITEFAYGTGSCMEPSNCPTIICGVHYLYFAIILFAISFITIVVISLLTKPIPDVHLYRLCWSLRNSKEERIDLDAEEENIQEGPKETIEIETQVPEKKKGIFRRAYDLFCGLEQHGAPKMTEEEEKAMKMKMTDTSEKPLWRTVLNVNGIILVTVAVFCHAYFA
Assay: SGLT1 assay: Na-dependent 14C-AMG uptake in CHO-K1 cells stably expressing human SGLT1
Settings: average if tested more than once
pIC50: −log10 of the molar value.
PROPERTY NAME: pIC50

Use these answered entries as a reference point.
Cc1c(Cc2ccc3c(c2)SCCO3)cc([C@@H]2O[C@H](CO)[C@@H](F)[C@H](O)[C@H]2O)c2c1CCO2; 6.87
COc1c(Cc2ccc3c(c2)OCCO3)cc([C@@H]2O[C@H](CO)[C@@H](F)[C@H](O)[C@H]2O)c2c1CCO2; 7.02
OC[C@H]1O[C@@H](c2cc(Cc3cc4ccccc4s3)c(Cl)cc2O)[C@H](O)[C@@H](O)[C@@H]1F; 7.74

A = COc1cc(C)c(Cc2cc3c(s2)CCN(C#N)C3)cc1[C@@H]1O[C@H](CO)[C@@H](F)[C@H](O)[C@H]1O
B = Cc1cc(O)c([C@@H]2O[C@H](CO)[C@@H](F)[C@H](O)[C@H]2O)cc1Cc1cc2c(s1)CCCC2=O
# input Which of these two has the smaller recorded pIC50: A or B ? Indicate your choice by writing its label.
# output A

----------
Molecular target: human SGLT1 (Homo sapiens, UniProt P13866)
Sequence (P13866 1-664): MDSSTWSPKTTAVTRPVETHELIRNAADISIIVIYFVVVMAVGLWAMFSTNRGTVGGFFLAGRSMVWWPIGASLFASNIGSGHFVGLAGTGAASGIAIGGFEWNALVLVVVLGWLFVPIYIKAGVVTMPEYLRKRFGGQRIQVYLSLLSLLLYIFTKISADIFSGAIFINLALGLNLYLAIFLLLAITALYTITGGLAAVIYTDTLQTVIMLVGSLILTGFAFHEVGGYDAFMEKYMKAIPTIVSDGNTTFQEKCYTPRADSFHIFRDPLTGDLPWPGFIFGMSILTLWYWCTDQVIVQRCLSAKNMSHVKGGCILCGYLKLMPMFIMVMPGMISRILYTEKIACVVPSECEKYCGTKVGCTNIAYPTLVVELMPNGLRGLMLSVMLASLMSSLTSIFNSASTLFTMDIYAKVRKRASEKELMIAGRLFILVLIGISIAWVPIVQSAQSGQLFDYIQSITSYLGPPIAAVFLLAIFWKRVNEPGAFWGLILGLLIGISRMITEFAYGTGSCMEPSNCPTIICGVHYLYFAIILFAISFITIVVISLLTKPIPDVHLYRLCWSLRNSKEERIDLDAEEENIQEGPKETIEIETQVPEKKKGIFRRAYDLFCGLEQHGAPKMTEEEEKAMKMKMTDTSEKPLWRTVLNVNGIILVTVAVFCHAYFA
Assay: SGLT1 assay: Na-dependent 14C-AMG uptake in CHO-K1 cells stably expressing human SGLT1
Settings: average if tested more than once
PROPERTY NAME: IC50 (µM)

Use these answered entries as a reference point.
OC[C@H]1O[C@@H](c2cc(Cc3cc4ccccc4s3)c(C3CC3)cc2O)[C@H](O)[C@@H](O)[C@@H]1F; 0.013
COc1cc(O)c([C@@H]2O[C@H](CO)[C@@H](F)[C@H](O)[C@H]2O)cc1Cc1cc2c(s1)CCN(C(C)=O)C2; 0.126

1 = O=C(N1CCCC1)N1CCc2sc(Cc3cc([C@@H]4O[C@H](CO)[C@@H](F)[C@H](O)[C@H]4O)cc4c3OCC4)cc2C1
2 = COc1c([C@@H]2O[C@H](CO)[C@@H](F)[C@H](O)[C@H]2O)cc(Cc2ccc3c(c2)SCCO3)c2c1CCO2
3 = [2H]C([2H])(c1ccc2c(c1)OCCO2)c1cc([C@@H]2O[C@H](CO)[C@@H](F)[C@H](O)[C@H]2O)c(OC)c2c1OCC2
# input Hey, can you sort those compounds up there by IC50, smallest first? Submit the labels in the order that the ranking request calls for.
# output 3, 1, 2
(3: 0.05 µM, 1: 0.1 µM, 2: 0.163 µM)

----------
Molecular target: UniProt:P13866
Test: SGLT1 assay: Na-dependent 14C-AMG uptake in CHO-K1 cells stably expressing human SGLT1
Conditions: average if tested more than once
PROPERTY NAME: IC50 (nM)

Use these answered entries as a reference point.
COc1cc(O)c([C@@H]2O[C@H](CO)[C@@H](F)[C@H](O)[C@H]2O)cc1Cc1cc2c(s1)CCN(C#N)C2 [Compound 100]; 95
Cc1cc(O)c([C@@H]2O[C@H](CO)[C@@H](F)[C@H](O)[C@H]2O)cc1Cc1cc2c(s1)CCN(C#N)C2 [Compound 103]; 86
OC[C@H]1O[C@@H](c2cc3c(c(Cc4ccc5c(c4)CCCO5)c2)OCC3)[C@H](O)[C@@H](O)[C@@H]1F [Compound 56]; 523
[2H]C1([2H])Oc2ccc(Cc3cc([C@@H]4O[C@H](CO)[C@@H](F)[C@H](O)[C@H]4O)ccc3OC)cc2OC1([2H])[2H] [Compound 173]; 190
COc1cc(C)c(Cc2cc3c(s2)CCN(C(=O)c2nccs2)C3)cc1[C@@H]1O[C@H](CO)[C@@H](F)[C@H](O)[C@H]1O [Compound 112]; 376
CCOc1ccc(Cc2cc([C@@H]3O[C@H](CO)[C@@H](F)[C@H](O)[C@H]3O)c(O)c3c2OCC3)cc1 [Compound 63]; 122

P = Cc1cc(O)c([C@@H]2O[C@H](C(C)(C)O)[C@@H](F)[C@H](O)[C@H]2O)cc1Cc1cc2ccccc2s1 [Compound 39]
Q = COc1c(Cc2ccc3c(c2)CC3)cc([C@@H]2O[C@H](CO)[C@@H](F)[C@H](O)[C@H]2O)c2c1CCO2 [Compound 152]
R = COc1c([C@@H]2O[C@H](CO)[C@@H](F)[C@H](O)[C@H]2O)cc(Cc2ccc3c(c2)OCCO3)c2c1CCO2 [Compound 65]
# input Order the records so the highest IC50 appears first and the lowest last. Submit the labels in the order that the ranking request calls for.
# output P, R, Q
(P: 381 nM, R: 43 nM, Q: 6 nM)

1 = COc1cc(O)c([C@@H]2O[C@H](C)[C@@H](F)[C@H](O)[C@H]2O)cc1Cc1cc2ccccc2s1 [Compound 10]
2 = OC[C@H]1O[C@@H](c2cc(Cc3ccc4c(c3)OCCO4)c3c(c2O)CCO3)[C@H](O)[C@@H](O)[C@@H]1F [Compound 61]
3 = COc1cc(Cl)c([C@@H]2O[C@H](CO)[C@@H](F)[C@H](O)[C@H]2O)cc1Cc1cc2ccccc2s1 [Compound 21]
4 = Cc1cc(O)c([C@@H]2O[C@H](CO)[C@@H](F)[C@H](O)[C@H]2O)cc1Cc1cc2c(s1)C(=O)CCO2 [Compound 129]
# input Hey, can you sort those molecules up there by IC50, smallest first? Submit the labels in the order that the ranking request calls for.
# output 2, 1, 4, 3
